# Tested on: DLD1
# METHOD DESCRIPTION: TCF/Wnt firefly luciferase reporter signal relative to plate median (fraction of plate median); higher = higher Wnt reporter signal
# PROTOCOL CONDITIONS: 10 µM; treatment time 24 h; reporter: 7TFP
VALUE TYPE: TCF/Wnt firefly luciferase reporter signal

>>> obs_value("CN1CCN(C2CCN(C(=O)Nc3cc(Oc4ccc(NC(=O)C5(C(=O)Nc6ccc(F)cc6)CC5)c(F)c4)ccn3)CC2)CC1 [Golvatinib (E7050)]")
0.719
>>> obs_value("Cc1ccc(C(=O)Nc2ccc(CN3CCN(C)CC3)c(C(F)(F)F)c2)cc1C#Cc1cnc2cccnn12")
0.285
>>> obs_value("COCC(=O)NC/C=C/c1ccc2ncnc(Nc3ccc(Oc4ccc(C)nc4)c(C)c3)c2c1")
1.18
>>> obs_value("Cc1nc(Nc2ncc(C(=O)Nc3c(C)cccc3Cl)s2)cc(N2CCN(CCO)CC2)n1")
0.54

From: the supplement of paper PMC6522484
